assaySystem: Casein kinase I isoform alpha (Homo sapiens);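 note: each value is a mean percent inhibition of the kinase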
experimentalSetup: at 1 µM

>  <sampleSmiles>
NCc1ccc(-c2nc(-c3ccc(Cl)c(O)c3)c(-c3ccncc3)[nH]2)cc1

>  <valueUnits>
%

>  <inhibition>
15.7

$$$$
>  <sampleSmiles>
N#Cc1c(NC(=O)c2cccc3ccccc23)sc2c1CCCC2

>  <valueUnits>
%

>  <inhibition>
2.15

$$$$
>  <sampleSmiles>
Cc1ccc(C(=O)NC2CCCCC2)cc1-c1ccc(C(=O)NCC2CC2)cc1

>  <valueUnits>
%

>  <inhibition>
3.89

$$$$

====

# inhibition values compiled below
assaySystem: Protein kinase C beta type (Homo sapiens) (UniProt P05771);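 note: GSK PKIS screen, average inhibition of the PKC-beta2 splice variant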
Sequence (P05771 2-671 limits assumed): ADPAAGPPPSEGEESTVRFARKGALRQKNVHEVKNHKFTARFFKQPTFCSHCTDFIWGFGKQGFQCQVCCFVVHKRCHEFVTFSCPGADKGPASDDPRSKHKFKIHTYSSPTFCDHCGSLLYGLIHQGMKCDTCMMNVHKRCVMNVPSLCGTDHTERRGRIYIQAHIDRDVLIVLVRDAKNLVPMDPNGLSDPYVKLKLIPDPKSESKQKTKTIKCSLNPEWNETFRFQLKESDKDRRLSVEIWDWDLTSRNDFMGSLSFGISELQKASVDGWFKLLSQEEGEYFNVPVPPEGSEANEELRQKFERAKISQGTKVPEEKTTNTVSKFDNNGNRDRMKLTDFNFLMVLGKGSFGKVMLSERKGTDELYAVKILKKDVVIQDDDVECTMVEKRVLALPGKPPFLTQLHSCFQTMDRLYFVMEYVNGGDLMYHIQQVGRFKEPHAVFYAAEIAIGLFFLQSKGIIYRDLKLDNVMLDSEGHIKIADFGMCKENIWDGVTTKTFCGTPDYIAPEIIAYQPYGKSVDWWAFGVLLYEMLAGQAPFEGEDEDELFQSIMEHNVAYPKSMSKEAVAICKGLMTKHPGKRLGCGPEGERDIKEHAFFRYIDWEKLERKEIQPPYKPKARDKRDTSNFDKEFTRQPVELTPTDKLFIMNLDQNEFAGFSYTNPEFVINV
experimentalSetup: at 1 µM
Description: GSK_PKIS: PKC-beta2 (splice variant) mean inhibition at 1 uM [Nanosyn]

>  <sampleSmiles>
CS(=O)(=O)CCNCc1nc(-c2ccc3ncnc(Nc4ccc(F)c(Cl)c4)c3c2)cs1

>  <inhibition, %>
2.18

$$$$
>  <sampleSmiles>
CN1CCC(C(=O)Nc2n[nH]c3nnc(-c4ccccc4)cc23)CC1

>  <inhibition, %>
1.6

$$$$
>  <sampleSmiles>
COc1cc(C=NNc2ncnc3c2cnn3-c2ccccc2)ccc1O

>  <inhibition, %>
5.98

$$$$
>  <sampleSmiles>
COc1cc2ncn(-c3cc(OCc4ccccc4C(F)(F)F)c(C(N)=O)s3)c2cc1OC

>  <inhibition, %>
2

$$$$
>  <sampleSmiles>
O=C1NC(=O)C(c2ccc(Cl)cc2)=C1Nc1ccc(Cl)c(C(=O)O)c1

>  <inhibition, %>
3.47

$$$$
>  <sampleSmiles>
Cc1cccc(-c2n[nH]cc2-c2ccc3ncccc3n2)n1

>  <inhibition, %>
0.49

$$$$
>  <sampleSmiles>
CCc1cccc(NC(=O)Nc2ccc(Oc3ccc4nc(NC(=O)OC)[nH]c4c3)cc2)c1

>  <inhibition, %>
-1.17

$$$$
>  <sampleSmiles>
CN(C)c1cc2c(Nc3ccc4nc(Cc5ccccc5)[nH]c4c3)ncnc2cn1

>  <inhibition, %>
3.96

$$$$
>  <sampleSmiles>
Cc1nn(C)c2cc(N(C)c3ccnc(Nc4cccc(S(N)(=O)=O)c4)n3)ccc12

>  <inhibition, %>
6.99

$$$$
>  <sampleSmiles>
Fc1cccc(COc2ccc(Nc3ncnc4sc(-c5cccs5)cc34)cc2Cl)c1

>  <inhibition, %>
0.44

$$$$
>  <sampleSmiles>
CC(C)=Cc1cccc2c1/C(=N/Nc1ccc(S(N)(=O)=O)cc1)C(=O)N2

>  <inhibition, %>
1.68

$$$$
>  <sampleSmiles>
CS(=O)(=O)Nc1ccc(N/C=C2\C(=O)Nc3ccccc32)cc1

>  <inhibition, %>
-0.85

$$$$
>  <sampleSmiles>
Cn1cc(C=C2C(=O)Nc3cccnc32)c2ccccc21

>  <inhibition, %>
0.8

$$$$
>  <sampleSmiles>
CS(=O)(=O)CCNCc1ccc(-c2ccc3ncnc(Nc4ccc(OCc5ccccc5)c(Cl)c4)c3c2)o1

>  <inhibition, %>
0.08

$$$$
>  <sampleSmiles>
COC(=O)Nc1nc2cc(Oc3ccc(NC(=O)Nc4cccc(C(=O)O)c4)cc3)ccc2[nH]1

>  <inhibition, %>
0.44

$$$$
>  <sampleSmiles>
Cc1nnc(-c2ccc(C)c(-c3ccc(C(=O)Nc4cccc(C#N)c4)cc3)c2)o1

>  <inhibition, %>
1.38

$$$$
>  <sampleSmiles>
Nc1ncnc2occ(-c3ccc(NC(=O)Nc4cccc(C(F)(F)F)c4)cc3)c12

>  <inhibition, %>
2.2

$$$$
>  <sampleSmiles>
Nc1nc(-c2ccc3c(c2)C(=Cc2cc(Br)c(O)c(Br)c2)C(=O)N3)cs1

>  <inhibition, %>
1.78

$$$$
>  <sampleSmiles>
CCCN1CCC=C(c2ccc(Nc3nc(Nc4ccccc4C(N)=O)c4cc[nH]c4n3)c(C)c2)C1

>  <inhibition, %>
3.5

$$$$
>  <sampleSmiles>
O=C1NC(=O)C(c2ccccc2Cl)=C1Nc1cccc(O)c1

>  <inhibition, %>
14.5

$$$$
>  <sampleSmiles>
CCn1c(-c2nonc2N)nc2c(C#CC(C)(C)O)nc(OC[C@@H](N)c3ccccc3)cc21

>  <inhibition, %>
23.1

$$$$
>  <sampleSmiles>
N#Cc1c(NC(=O)c2cccc3ccccc23)sc2c1CCCC2

>  <inhibition, %>
2.04

$$$$
>  <sampleSmiles>
CS(=O)(=O)CCNCc1ccc(-c2ccc3ncnc(Nc4ccc(OCc5cccc(F)c5)c(C(F)(F)F)c4)c3c2)o1

>  <inhibition, %>
2.44

$$$$
>  <sampleSmiles>
NC(=O)c1ccc(-c2nc(-c3ccccn3)c(-c3ccc4c(c3)OCO4)[nH]2)cc1

>  <inhibition, %>
5.1

$$$$
>  <sampleSmiles>
COc1ccc(-c2ccncc2)cc1C(N)=O

>  <inhibition, %>
2.35

$$$$
>  <sampleSmiles>
NS(=O)(=O)c1ccc(N/N=C2\C(=O)Nc3ccc(C(=O)NCCc4c[nH]cn4)cc32)cc1

>  <inhibition, %>
2.48

$$$$
>  <sampleSmiles>
O=C1NC(=O)C(c2cccc(Cl)c2)=C1Nc1ccc(O)c(Cl)c1

>  <inhibition, %>
8.45

$$$$
>  <sampleSmiles>
NCc1ccc(-c2nc(-c3ccc(Cl)c(O)c3)c(-c3ccncc3)[nH]2)cc1

>  <inhibition, %>
10.8

$$$$
>  <sampleSmiles>
O=C1NC(=O)C(N2CCc3ccccc32)=C1c1ccc(Cl)cc1

>  <inhibition, %>
1.65

$$$$
>  <sampleSmiles>
CCn1c(-c2nonc2N)nc2ccncc21

>  <inhibition, %>
0.57

$$$$
>  <sampleSmiles>
Nc1ncnc2occ(-c3ccc(NC(=O)Nc4cc(C(F)(F)F)cc(C(F)(F)F)c4)cc3)c12

>  <inhibition, %>
0.44

$$$$
>  <sampleSmiles>
COc1cccc(-n2ncc3c(N/N=C/c4cccc(F)c4)ncnc32)c1

>  <inhibition, %>
3.14

$$$$
>  <sampleSmiles>
c1cnn2ncc(-c3ccnc(Nc4ccc5c(c4)OCCO5)n3)c2c1

>  <inhibition, %>
5.22

$$$$
>  <sampleSmiles>
CCN1CCC(CC(=O)Nc2n[nH]c3nc(-c4cccs4)c(Br)cc23)CC1

>  <inhibition, %>
2.84

$$$$
>  <sampleSmiles>
CCCN1CCC(Oc2cc(Nc3nc(Nc4cccc(F)c4C(N)=O)c4cc[nH]c4n3)c(OC)cc2Cl)CC1

>  <inhibition, %>
4.52

$$$$
>  <sampleSmiles>
CCn1c(-c2nonc2N)nc2cnc(Oc3cccc(NC(=O)c4ccc(OCCN5CCOCC5)cc4)c3)cc21

>  <inhibition, %>
42.4

$$$$
>  <sampleSmiles>
COC(=O)Nc1nc2cc(Oc3cccc(NC(=O)Nc4cc(C(F)(F)F)ccc4F)c3)ccc2[nH]1

>  <inhibition, %>
1.79

$$$$
>  <sampleSmiles>
Cc1ccc(NC(=O)c2ccnc(N3CCCC3)c2)cc1-c1ccc(C(=O)NCC2CC2)cc1

>  <inhibition, %>
2.94

$$$$
>  <sampleSmiles>
CCn1c(-c2nonc2N)nc2cncc(C(=O)N3CC[C@H](N)C3)c21

>  <inhibition, %>
45.6

$$$$
>  <sampleSmiles>
O=C1Nc2ccc(C(=O)c3ccco3)cc2C1=Cc1cc(Cl)c(O)c(Cl)c1

>  <inhibition, %>
3.01

$$$$

====

# inhibition values compiled below
assaySystem: CDK3/Cyclin E (Homo sapiens) (UniProt P24864+Q00526);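 note: each figure is a mean percent inhibition of the CDK3/cyclin E complex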
Sequence (P24864 whole entry, looked up): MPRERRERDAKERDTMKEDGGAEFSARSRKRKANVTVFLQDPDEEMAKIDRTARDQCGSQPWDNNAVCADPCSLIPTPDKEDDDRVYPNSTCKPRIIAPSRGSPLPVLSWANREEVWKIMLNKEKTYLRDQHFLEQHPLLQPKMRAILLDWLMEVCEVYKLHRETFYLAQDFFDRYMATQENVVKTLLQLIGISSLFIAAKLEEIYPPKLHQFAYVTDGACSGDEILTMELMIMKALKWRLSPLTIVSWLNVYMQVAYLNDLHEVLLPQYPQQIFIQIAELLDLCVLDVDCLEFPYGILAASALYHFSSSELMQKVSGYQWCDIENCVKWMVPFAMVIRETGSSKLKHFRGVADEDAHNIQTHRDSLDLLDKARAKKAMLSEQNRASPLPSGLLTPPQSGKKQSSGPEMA
Sequence (Q00526 whole entry, looked up): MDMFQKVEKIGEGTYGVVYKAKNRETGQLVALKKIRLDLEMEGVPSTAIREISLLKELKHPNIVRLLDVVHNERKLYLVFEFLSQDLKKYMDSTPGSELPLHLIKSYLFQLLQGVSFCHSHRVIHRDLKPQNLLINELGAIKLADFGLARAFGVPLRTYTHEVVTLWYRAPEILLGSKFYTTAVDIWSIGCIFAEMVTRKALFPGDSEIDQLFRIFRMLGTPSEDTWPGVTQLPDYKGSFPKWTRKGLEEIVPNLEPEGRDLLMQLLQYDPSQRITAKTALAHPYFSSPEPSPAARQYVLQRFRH
experimentalSetup: at 1 µM

>  <sampleSmiles>
Cc1nnc(-c2ccc(C)c(-c3ccc(C(=O)Nc4cccc(C#N)c4)cc3)c2)o1

>  <inhibition [%]>
-0.82

$$$$
>  <sampleSmiles>
O=C1NC(=O)C(c2cccc(Cl)c2)=C1Nc1ccc(O)c(Cl)c1

>  <inhibition [%]>
6.94

$$$$
>  <sampleSmiles>
CCn1c(-c2nonc2N)nc2cnc(Oc3cccc(NC(=O)c4ccc(OCCN5CCOCC5)cc4)c3)cc21

>  <inhibition [%]>
-2.11

$$$$
>  <sampleSmiles>
CS(=O)(=O)CCNCc1ccc(-c2ccc3ncnc(Nc4ccc(OCc5ccccc5)c(Cl)c4)c3c2)o1

>  <inhibition [%]>
-1.2

$$$$
>  <sampleSmiles>
O=C1Nc2ccc(C(=O)c3ccco3)cc2C1=Cc1cc(Cl)c(O)c(Cl)c1

>  <inhibition [%]>
-0.28

$$$$
>  <sampleSmiles>
CCn1c(-c2nonc2N)nc2ccncc21

>  <inhibition [%]>
-0.78

$$$$
>  <sampleSmiles>
COc1ccccc1Nc1ncc(-c2ccccc2)o1

>  <inhibition [%]>
-1.14

$$$$
>  <sampleSmiles>
CCN1CCC(CC(=O)Nc2n[nH]c3nc(-c4cccs4)c(Br)cc23)CC1

>  <inhibition [%]>
9.52

$$$$
>  <sampleSmiles>
CCn1c(-c2nonc2N)nc2c(N3CCCC3)nccc21

>  <inhibition [%]>
-0.6

$$$$
>  <sampleSmiles>
Nc1ncnc2occ(-c3ccc(NC(=O)Nc4cccc(C(F)(F)F)c4)cc3)c12

>  <inhibition [%]>
16.6

$$$$
>  <sampleSmiles>
Nc1nc(-c2ccc3c(c2)C(=Cc2cc(Br)c(O)c(Br)c2)C(=O)N3)cs1

>  <inhibition [%]>
-0.65

$$$$
>  <sampleSmiles>
O=C(Nc1n[nH]c2nc(-c3ccco3)c(Br)cc12)C1CC1

>  <inhibition [%]>
2.69

$$$$
>  <sampleSmiles>
Cc1cc(O)cc(C)c1/C=C/c1cncc(-c2nn[nH]n2)c1

>  <inhibition [%]>
-2.12

$$$$
>  <sampleSmiles>
COc1cc2ncn(-c3cc(O[C@@H](C)c4ccccc4Cl)c(C(N)=O)s3)c2cc1OC

>  <inhibition [%]>
-0.13

$$$$
>  <sampleSmiles>
CC(=O)Nc1cccc(C#Cc2cncnc2Nc2ccc(OCc3cccc(F)c3)c(Cl)c2)n1

>  <inhibition [%]>
-0.89

$$$$
>  <sampleSmiles>
N#Cc1c(NC(=O)c2cccc3ccccc23)sc2c1CCCC2

>  <inhibition [%]>
-0.77

$$$$
>  <sampleSmiles>
Cc1ccc(C(=O)NC2CCCCC2)cc1-c1ccc(C(=O)NCC2CC2)cc1

>  <inhibition [%]>
0.7

$$$$
>  <sampleSmiles>
O=C1NC(=O)C(N2CCc3ccccc32)=C1c1ccc(Cl)cc1

>  <inhibition [%]>
0.23

$$$$
>  <sampleSmiles>
Nc1ncnc2occ(-c3ccc(NC(=O)Nc4cc(C(F)(F)F)cc(C(F)(F)F)c4)cc3)c12

>  <inhibition [%]>
7.22

$$$$
>  <sampleSmiles>
COc1cc2ncn(-c3cc(O[C@H](C)c4ccccc4Cl)c(C(N)=O)s3)c2cc1OC

>  <inhibition [%]>
5.51

$$$$
>  <sampleSmiles>
Fc1cccc(COc2ccc(Nc3ncnc4cc(-c5ccc[nH]5)sc34)cc2Cl)c1

>  <inhibition [%]>
-1.23

$$$$
